I'd appreciate it if you could supply pIC50 values for the items below.
target: UniProtKB P0C6X2; assay: HCoV-HKU1 Mpro enzymatic inhibition assay (fluorescence); type: biochemical
Sequence (P0C6X2 3335-3637 limits assumed): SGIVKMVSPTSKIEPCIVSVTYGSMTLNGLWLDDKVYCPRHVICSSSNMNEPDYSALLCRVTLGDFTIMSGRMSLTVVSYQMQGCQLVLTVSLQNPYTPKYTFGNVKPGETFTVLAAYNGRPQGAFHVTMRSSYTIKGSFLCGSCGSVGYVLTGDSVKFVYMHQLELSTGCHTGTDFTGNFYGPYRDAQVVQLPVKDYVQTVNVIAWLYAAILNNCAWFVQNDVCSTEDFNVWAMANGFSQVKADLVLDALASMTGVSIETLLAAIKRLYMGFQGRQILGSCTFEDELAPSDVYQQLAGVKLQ
Answers are plain numbers, as −log10 of the molar value.

Batch request: pIC50 for each of the following molecules.
1. CC1CC(C(=O)N2C[C@H]3[C@@H]([C@H]2C(=O)N[C@H](C=O)C[C@@H]2CCNC2=O)C3(C)C)C1 (stereo partly shown) [Compound 110]
2. O=C[C@H](C[C@@H]1CCNC1=O)NC(=O)[C@@H]1CCCN1C(=O)c1cc2ccccc2[nH]1 [Compound 138]
3. CC1(C)[C@@H]2[C@@H](C(=O)N[C@H](C=O)C[C@@H]3CCNC3=O)N(C(=O)c3cc4sccc4[nH]3)C[C@@H]21 [Compound 30]
4. O=C[C@H](C[C@@H]1CCNC1=O)NC(=O)[C@@H]1CC2(CC2)CN1C(=O)c1cc2ccccc2[nH]1 [Compound 47]
5. O=C[C@H](C[C@@H]1CCNC1=O)NC(=O)[C@@H]1C[C@@H]2CCC[C@@H]2N1C(=O)c1cc2ccccc2[nH]1 [Compound 129]
6. O=C[C@H](C[C@@H]1CCNC1=O)NC(=O)[C@@H]1[C@H]2C[C@H](F)[C@H](C2)N1C(=O)c1cc2ccccc2[nH]1 [Compound 106]
7. CC1(C)[C@@H]2[C@@H](C(=O)N[C@H](C=O)C[C@@H]3CCNC3=O)N(C(=O)Cc3ccccc3)C[C@@H]21 [Compound 23]
8. CC1(C)[C@@H]2[C@@H](C(=O)N[C@H](C=O)C[C@@H]3CCCNC3=O)N(C(=O)c3cc4ccccc4[nH]3)C[C@@H]21 [Compound 11]

Response:
6.64
6.64
7.58
7.77
7.12
7.40
7.65
7.40
